Ref: PubChem BioAssay AID328

tested on: BDF1 mice, P388 leukemia ip, median survival T/C; assay: NCI In Vivo Anticancer Drug Screen. Data for tumor model P388 Leukemia (intraperitoneal) in B6D2F1 (BDF1) mice; conditions: endpoint: median survival time; dose: 100.0 mg/kg/injection; schedule: Q01DX009 (ip); vehicle: saline with Tween-80; higher = longer survival
Toxic doses and inconclusive results are not listed.
Measurement kind: T/C

1) CS(=O)CC(O)(c1ccc(F)cc1)C1CC1 (stereo unspecified)    103 % of control
2) COC(=O)/C(=C/c1ccccc1)c1ccccc1    99 % of control
3) O=C(O)c1ccccc1C(=O)NNC(=O)c1ccccc1C(=O)O    100 % of control
4) O=C1O/C(=C2\OCc3ccccc32)c2ccccc21    98 % of control
5) O=C(O)/C=C/c1ccc(Cl)cc1Cl    90 % of control
6) CC1(C)OC(CI)C(COS(C)(=O)=O)O1 (stereo unspecified)    91 % of control
7) CN1C(=O)Nc2ccc(Cl)cc2C1(O)c1ccccc1 (stereo unspecified)    89 % of control
8) CS(=O)(=O)CC(O)(c1ccccc1)c1cccnc1 (stereo unspecified)    104 % of control
9) CCCC(NC(=O)OCc1ccccc1)C(=O)O (stereo unspecified)    105 % of control
10) COc1ccc(/C(=C\S(C)(=O)=O)c2cccs2)cc1    91 % of control
11) CCCCCCCSc1ncnc2nc[nH]c12    100 % of control
